Value source: a protein production outcome set (Wang et al. 2014)

# protocol details: label from the status in PepcDB records
experimental endpoint: protein production

MDKTKTFCKASLVSIALVLLLVSSAALAATENDTGNATIKDDYVSSTAMANTEGSSLPKVTETQITTSGFHPAIYGNRIVWTDYHDEECNIYMYDLSTKKETQITTSGDVSGSDIYGNRIVWSNYVYPNEVYMYDLSTSQKSTISGYNSYVDSLSIYGDKVVWGDSLDDYVSIFMHDLSTKEETLLTYDAYNPAIYGNRIVWEDRFDDNIYMYDISTKKQTRITNGGAADDPAIYGNRIVYASTHDGNTDIYMYDLSTKKQTQITSSPDAQTHPAIYGNRIVWEDDGGEDDGYTNHGIYMYDISTNQKMKISTKGSAYSPTIYGNNIVWEYYNNENGKLRNLHGHYFRTKTEPSYCCILCIPNFRKNTIKSYFY
failed
MRENIIEFIPKEKPCSYLKEERSLFRYFHIEECSSDLYQALLERGWRRFGKYFFVPICKNCKACLSVRKPLANLEFSRSFKRVLSKNRQTGLVIQRPMITEAHLKLYDRYHRRMSEKKGWEYSPITMESYYEMFVEGSGEFGYEFAYYRDERLVGIALVDILERSLSAVYCFYDHDYSDFSLGIFSILKQLELAKRLKIDYFYPGYWIKNHPSMGYKERFAPYEILRNEPDIDALPEWSLQGENE
failed
